The reported numbers originate from ChEMBL document CHEMBL1137201.

Can you tell me IC50 for the items I'm about to list?
measured_on: Melanin-concentrating hormone receptor 1 (Homo sapiens)
Sequence (Q99705 whole entry): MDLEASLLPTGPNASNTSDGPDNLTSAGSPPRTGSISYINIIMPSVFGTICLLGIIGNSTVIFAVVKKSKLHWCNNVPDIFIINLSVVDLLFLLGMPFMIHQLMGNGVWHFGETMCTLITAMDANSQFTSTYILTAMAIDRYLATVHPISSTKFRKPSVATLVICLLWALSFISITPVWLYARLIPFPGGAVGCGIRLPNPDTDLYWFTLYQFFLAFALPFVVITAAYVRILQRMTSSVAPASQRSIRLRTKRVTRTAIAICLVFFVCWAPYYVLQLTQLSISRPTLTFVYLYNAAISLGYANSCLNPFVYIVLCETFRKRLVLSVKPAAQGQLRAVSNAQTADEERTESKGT
assay_comment: Inhibition of Melanin-concentrating hormone 1 receptor expressed in CHO cells
Format: cell-based
Numbers only here, please. The scale is nM.

**Query** Tell me the measured IC50 of CCN1CCN(c2cc(C)c3cc(NC(=O)COc4cccc(C)c4)ccc3n2)CC1 , please.
**Result** 6600

**Query** Consider next the compound CCN1CCN(c2cc(C)c3cc(NC(=O)C(C)Oc4ccc(Cl)cc4Cl)ccc3n2)CC1 (centres undefined) in the same way.
**Result** 230

**Query** Consider next the compound CCN1CCN(c2cc(C)c3cc(NC(=O)CCc4ccc(OC)cc4)ccc3n2)CC1 in the same way.
**Result** 730

**Query** Consider next the compound CCN1CCN(c2cc(C)c3cc(NC(=O)CSc4ccncc4)ccc3n2)CC1 in the same way.
**Result** 8200

**Query** Consider next the compound COc1ccc(CCC(=O)Nc2ccc3nc(N4CCN(C)CC4)cc(C)c3c2)cc1 in the same way.
**Result** 250

**Query** Consider next the compound O=C1c2cc(OCCC3CCN(Cc4ccc(C5=NCCN5)cc4)CC3)ccc2CCCN1Cc1ccccc1 in the same way.
**Result** 300

**Query** Consider next the compound O=C(CNC(=O)OCc1ccccc1)NCC(CCCN1CCC(c2ccccc2)CC1)(c1ccccc1)c1ccccc1 in the same way.
**Result** 5

**Query** Consider next the compound CN(C)CC1CCc2cc(NC(=O)c3ccc(-c4ccc(F)cc4)cc3)ccc2C1 (centres undefined) in the same way.
**Result** 5.5

**Query** Consider next the compound Cc1cc(N2CCN(C)CC2)nc2ccc(NC(=O)C(C)Oc3ccc(Cl)cc3Cl)cc12 (centres undefined) in the same way.
**Result** 790
